Sourced from patent US20030166932A1

- TARGET SYSTEM: UniProt P13631
- Sequence (P13631 1-454): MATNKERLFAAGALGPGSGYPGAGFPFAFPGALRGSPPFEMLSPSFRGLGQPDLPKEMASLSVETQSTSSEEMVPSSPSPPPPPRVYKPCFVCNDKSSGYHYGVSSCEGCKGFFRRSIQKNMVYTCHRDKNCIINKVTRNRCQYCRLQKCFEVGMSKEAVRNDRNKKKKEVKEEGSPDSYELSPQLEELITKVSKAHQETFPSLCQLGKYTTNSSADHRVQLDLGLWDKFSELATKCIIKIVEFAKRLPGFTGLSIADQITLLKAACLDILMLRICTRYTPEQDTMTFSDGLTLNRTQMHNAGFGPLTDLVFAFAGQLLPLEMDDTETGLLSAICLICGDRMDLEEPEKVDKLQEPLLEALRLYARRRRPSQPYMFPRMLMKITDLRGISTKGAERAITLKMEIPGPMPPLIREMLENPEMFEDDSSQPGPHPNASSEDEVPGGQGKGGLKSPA
- TEST SUMMARY: ligand binding assay
- RUN PARAMETERS: read-out: RAR Bind. Ki (nM) Y
Parameter: Ki. Scope: all listed entries.
MEASURE NAME: Ki (nM)

{"columns": ["COMPOUND", "MEASURE NAME", "MODIFIER SIGN", "MEASUREMENT"],
 "data": [
  ["C=CCN(c1ccc(C(=O)O)cc1)c1ccc2c(c1)C(C(C)(C)C)=CCC2(C)C [Compound 90]", "Ki", ">", 10000],
  ["CCC1=CCC(C)(C)c2cc(N(CC)c3ccc(C(=O)O)cc3)c(C)cc21 [Compound 59]", "Ki", ">", 10000],
  ["CCN(c1ccc(C(=O)O)cc1)c1cc2c(cc1OC(C)C)C(C)(C)CC=C2C(C)C [Compound 151]", "Ki", ">", 10000],
  ["CC1=CCC(C)(C)c2cc(N(CC3CC3)c3ccc(C(=O)O)cc3)c(C)cc21 [Compound 47]", "Ki", ">", 10000],
  ["CC1=CCC(C)(C)c2cc(N(C)c3ccc(C(=O)O)cc3)c(C)cc21 [Compound 44]", "Ki", ">", 10000],
  ["CCCOc1cc2c(cc1N(CC)c1ccc(C(=O)O)cc1)C(C(C)C)=CCC2(C)C [Compound 150]", "Ki", "=", 7900],
  ["CCN(c1ccc(C(=O)O)cc1)c1cc2c(cc1OCc1ccc(C)cc1)C(C)(C)CC=C2C(C)C [Compound 155]", "Ki", "=", 2900],
  ["CCC1=CCC(C)(C)c2cc(C)c(N(CC)c3ccc(C(=O)O)cc3)cc21 [Compound 24]", "Ki", "=", 13000],
  ["CCN(c1ccc(C(=O)O)cc1)c1cc2c(cc1OC)C(C)(C)CC=C2C(C)C [Compound 148]", "Ki", ">", 10000],
  ["CCN(c1ccc(C(=O)O)cc1)c1cc2c(cc1C)C(C)=CCC2(C)C [Compound 45]", "Ki", ">", 10000],
  ["CCCCCCOc1cc2c(cc1N(CC)c1ccc(C(=O)O)cc1)C(C)=CCC2(C)C [Compound 142]", "Ki", ">", 1000],
  ["CCC1=CCC(C)(C)c2cc(N(CC)c3ccc(C(=O)O)cc3)ccc21 [Compound 75]", "Ki", ">", 10000],
  ["CCN(c1ccc2c(c1)C(C)=CCC2(C)C)c1ccc(C(=O)O)cn1 [Compound 170]", "Ki", ">", 10000],
  ["CCN(c1ccc2c(c1)C(C(C)C)=CCC2(C)C)c1ccc(C(=O)O)cn1 [Compound 172]", "Ki", ">", 10000],
  ["Cc1cc2c(cc1N(C)c1ccc(C(=O)O)cc1)C(C)(C)CC=C2C(C)C [Compound 52]", "Ki", ">", 10000],
  ["CCCCCCCOc1cc2c(cc1N(CCC)c1ccc(C(=O)O)cc1)C(C)=CCC2(C)C [Compound 146]", "Ki", "=", 2800],
  ["CCN(c1ccc(C(=O)O)cc1)c1cc2c(cc1OCc1cc(C(C)(C)C)cc(C(C)(C)C)c1)C(C)(C)CC=C2C(C)C [Compound 156]", "Ki", "=", 4200],
  ["CCN(c1ccc(C(=O)O)cc1)c1cc2c(cc1C)C(C(C)C)=CCC2(C)C [Compound 53]", "Ki", ">", 10000],
  ["CCN(c1ccc(C(=O)O)cc1)c1cc2c(cc1OCc1ccccc1)C(C)(C)CC=C2C [Compound 144]", "Ki", "=", 8100],
  ["CCCN(c1ccc(C(=O)O)cc1)c1cc2c(cc1C)C(C(C)C)=CCC2(C)C [Compound 54]", "Ki", ">", 10000],
  ["CCCCCCOc1cc2c(cc1N(CCC)c1ccc(C(=O)O)cc1)C(C)=CCC2(C)C [Compound 145]", "Ki", "=", 6000],
  ["CCCN(c1ccc(C(=O)O)cc1)c1cc2c(cc1OCc1ccccc1)C(C)(C)CC=C2C(C)C [Compound 157]", "Ki", "=", 13000],
  ["CCCN(c1ccc(C(=O)O)cc1)c1cc2c(cc1C)C(C)=CCC2(C)C [Compound 46]", "Ki", ">", 10000],
  ["CCCCCCCOc1cc2c(cc1N(CC)c1ccc(C(=O)O)cc1)C(C)=CCC2(C)C [Compound 143]", "Ki", "=", 8400],
  ["CCN(c1ccc(C(=O)O)cc1)c1cc2c(cc1OCc1ccccc1)C(C)(C)CC=C2C(C)(C)C [Compound 158]", "Ki", "=", 881]
]}
